- assay explanation: chemical genetic growth profiling, strain panel (AID 1159580);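 note: tested at 20 µM; growth read once vehicle control cultures reached saturation at 30 °C; 1 = growth at the plate median or of vehicle wells; lower values mean less growth of the strain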
- condition set: S. cerevisiae deletion strains, growth OD, locus YER133W, strain GLC7, hits give low values
Among all 5,500 compounds or so, about 2,000 (36%) were called active. Another 18% or so got no clear call; they are omitted. The list shows a part of the results.
Recorded normalized growth, one value per entry.
Answer using only a numeral; do not append any unit.

Example molecules with recorded normalized growth:
1) CN(C)c1ccc(/C=C/c2ccc3ccccc3[n+]2C)cc1; 0.801
2) Clc1ccccc1-c1csc(-c2cccnc2)n1; 0.565
3) COc1ccc(-c2csc(-c3cccnc3)n2)cc1; 0.888
4) N#CC(C#N)=Cc1c(-c2ccccc2Cl)[nH]c2ccccc12; 0.93

Noted for Clc1cc(Cl)cc(C=NCc2ccccc2)c1 : its normalized growth reads 0.625

Noted for C[C@@H](Nc1ncnc2sc3c(c12)CCCC3)c1ccccc1 : its normalized growth reads 0.928

Noted for Clc1ccc(Oc2ccnc3cc(Cl)ccc23)cc1 : its normalized growth reads 0.613

Noted for Cc1noc(C)c1S(=O)(=O)Nc1csc(C(F)(F)F)c1-c1ccccc1 : its normalized growth reads 1.02

Noted for COc1ccc(-c2cn3cc(C)ccc3n2)cc1 : its normalized growth reads 0.981

Noted for Cc1c(S(=O)(=O)Nc2cccc([N+](=O)[O-])c2)sc2ccc(Cl)cc12 : its normalized growth reads 0.982

Noted for O=S(=O)(Nc1csc(C(F)(F)F)c1-c1ccccc1)c1cc(Br)c(Br)s1 : its normalized growth reads 0.959

Noted for O=[N+]([O-])c1ccsc1Oc1cccc(C(F)(F)F)c1 : its normalized growth reads 0.831

Noted for Cc1ccccc1/C=C/c1c[nH]c2ccccc12 : its normalized growth reads 0.906

Noted for CC1=CC(=O)N(c2ccc(F)c(Cl)c2)C1=O : its normalized growth reads 0.371

Noted for CC(C)(C)C1=C(C#N)C(c2c(Cl)cccc2Cl)C(C#N)=C(N)O1 (centres undefined) : its normalized growth reads 0.984

Noted for O=C(Nc1cc(Cl)ccc1O)c1ccccc1CSc1ccc(Cl)cc1 : its normalized growth reads 0.839

Noted for N#Cc1ccc(Oc2sccc2[N+](=O)[O-])cc1 : its normalized growth reads 0.847

Noted for CC1CCC(C(C)C)C(N(Cc2ccccc2)C(=O)c2ccccc2)C1 (centres undefined) : its normalized growth reads 0.978

Noted for Brc1ccc(-c2csc(-c3cccnc3)n2)cc1 : its normalized growth reads 0.561

Noted for O=S(=O)(Nc1cc(Cl)c(Cl)cc1Cl)c1cc(C(F)(F)F)cc(C(F)(F)F)c1 : its normalized growth reads 0.937

Noted for Clc1ccc(-c2cnc(Nc3cc(Cl)cc(Cl)c3)s2)cc1 : its normalized growth reads 0.12

Noted for Clc1ccccc1-c1csc(-c2ccncc2)n1 : its normalized growth reads 0.945

Noted for CNC(=O)Sc1c(-c2ccc(Cl)cc2)nn(C(=O)NC)c1SC : its normalized growth reads 0.485

Noted for CC1C(c2ccccc2)N(C)C(c2ccccc2)CC1(O)c1ccc(F)cc1 (centres undefined) : its normalized growth reads 0.995
